test system: Wnt signaling; assay: TopFlash reporter gene bioassay in SW480 cells; format: cell-based; settings: Homo sapiens, SW480, TopFlash reporter gene assay, inhibition of Wnt signaling; read-out: RGA, IC50 (μM) TopF
MEASURE: IC50 (µM)
Response body: numeric value in µM, unit text excluded.

QUERY: So what's the measured IC50 for this one? `C=CCOc1ccccc1CN1C[C@H]2N(C(=O)CN(CC=C)N2C(=O)NCc2ccccc2)[C@@H](Cc2ccc(O)cc2)C1=O`
RESULT: 1.96

QUERY: So what's the measured IC50 for this one? `C=CCN1CC(=O)N2[C@@H](Cc3ccc(O)cc3)C(=O)N(Cc3ccc(OC)c(F)c3)C[C@@H]2N1C(=O)NCc1ccccc1`
RESULT: 2.86

QUERY: So what's the measured IC50 for this one? `C=CCN1CC(=O)N2[C@@H](Cc3ccc(O)cc3)C(=O)N(Cc3cccc(C(=O)NCC4CC4)c3)C[C@@H]2N1C(=O)NCc1ccccc1`
RESULT: 0.52

QUERY: So what's the measured IC50 for this one? `C=CCN1CC(=O)N2[C@@H](Cc3ccc(ON)cc3)C(=O)N(Cc3ccc(OC)c(Cl)c3)C[C@@H]2N1C(=O)NCc1ccccc1`
RESULT: 1.99

QUERY: So what's the measured IC50 for this one? `C=CCN1CC(=O)N2[C@@H](Cc3ccc(O)cc3)C(=O)N(Cc3cccc4c(C)c(-c5ccccc5F)n(S(=O)(=O)c5ccccc5)c34)C[C@@H]2N1C(=O)NCc1ccccc1`
RESULT: 0.82

QUERY: So what's the measured IC50 for this one? `C=CCN1CC(=O)N2[C@@H](Cc3ccc(O)cc3)C(=O)N(Cc3cccc(-c4ccccc4O)c3)C[C@@H]2N1C(=O)NCc1ccccc1`
RESULT: 1.43

QUERY: So what's the measured IC50 for this one? `C=CCN1CC(=O)N2[C@@H](Cc3ccc(NC(N)=O)cc3)C(=O)N(Cc3cccc4scnc34)C[C@@H]2N1C(=O)NCc1ccccc1`
RESULT: 15.1

QUERY: So what's the measured IC50 for this one? `C=CCN1CC(=O)N2[C@@H](Cc3ccc(O)cc3)C(=O)N(Cc3csc4cc(N)ccc34)C[C@@H]2N1C(=O)NCc1ccccc1`
RESULT: 0.86

* * *

target: cDNA-expressed human hepatic CYP3A4 (Homo sapiens); construct: purchased BD Gentest 456202; experiment: P450 CYP3A4 inhibitory activity screening (BFC substrate, fluorescence); assay type: biochemical; details: P450 CYP3A4 inhibitory activity screening, fluorescent assay; read-out: CYP3A4 inhibition, IC50 (μM) fluorescent assay
Sequence (P08684 whole entry): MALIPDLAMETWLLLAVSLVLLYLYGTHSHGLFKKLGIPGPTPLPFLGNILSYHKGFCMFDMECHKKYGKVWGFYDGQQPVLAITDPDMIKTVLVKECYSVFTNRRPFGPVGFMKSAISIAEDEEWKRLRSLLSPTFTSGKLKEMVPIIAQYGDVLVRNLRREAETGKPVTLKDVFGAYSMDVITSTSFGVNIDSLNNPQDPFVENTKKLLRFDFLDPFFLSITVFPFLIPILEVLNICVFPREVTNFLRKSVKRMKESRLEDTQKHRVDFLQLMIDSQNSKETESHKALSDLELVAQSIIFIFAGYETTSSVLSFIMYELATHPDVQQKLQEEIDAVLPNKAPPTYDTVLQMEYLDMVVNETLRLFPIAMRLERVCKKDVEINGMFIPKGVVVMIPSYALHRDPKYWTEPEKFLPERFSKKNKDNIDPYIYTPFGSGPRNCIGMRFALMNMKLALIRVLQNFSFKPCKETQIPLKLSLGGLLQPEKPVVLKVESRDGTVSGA
Label TRUE when IC50 < 20 µM; otherwise FALSE.

QUERY: Please determine if C=CCN1CC(=O)N2[C@@H](Cc3ccc(O)cc3)C(=O)N(Cc3cccc(C(N)=O)c3)C[C@@H]2N1C(=O)NCc1ccccc1 [compound 53] is below 20 µM in terms of IC50.
RESULT: FALSE

QUERY: Please determine if C=CCN1CC(=O)N2[C@@H](Cc3ccc(OS(N)(=O)=O)cc3)C(=O)N(Cc3cccc(C(=O)O)c3)C[C@@H]2N1C(=O)NCc1ccccc1 [compound 55] is below 20 µM in terms of IC50.
RESULT: FALSE

QUERY: Please determine if C=CCN1CC(=O)N2[C@@H](Cc3ccc(O)cc3)C(=O)N(Cc3cccc(C#N)c3)C[C@@H]2N1C(=O)NCc1ccccc1 [compound 19] is below 20 µM in terms of IC50.
RESULT: TRUE

QUERY: Please determine if C=CCN1CC(=O)N2[C@@H](Cc3ccc(O)cc3)C(=O)N(Cc3cccc4c(C(=O)C5CC5)c[nH]c34)C[C@@H]2N1C(=O)NCc1ccccc1 [compound 61] is below 20 µM in terms of IC50.
RESULT: TRUE

QUERY: Please determine if C=CCN1CC(=O)N2[C@@H](Cc3ccc(O)cc3)C(=O)N(Cc3cccc(C(=O)O)c3)C[C@@H]2N1C(=O)NCc1ccccc1 [compound 54] is below 20 µM in terms of IC50.
RESULT: FALSE

QUERY: Please determine if C=CCN1CC(=O)N2[C@@H](Cc3ccc(O)cc3)C(=O)N(Cc3cccc(NC(C)=O)c3)C[C@@H]2N1C(=O)NCc1ccccc1 [compound 28] is below 20 µM in terms of IC50.
RESULT: TRUE

QUERY: Please determine if C=CCN1CC(=O)N2C(CN(Cc3ccccc3S(C)(=O)=O)C(=O)[C@@H]2Cc2ccc(O)cc2)N1C(=O)NCc1ccccc1 (stereo partly shown) [compound 30] is below 20 µM in terms of IC50.
RESULT: TRUE

QUERY: Please determine if C=CCN1CC(=O)N2[C@@H](Cc3ccc(O)cc3)C(=O)N(Cc3cccc4c3ncn4CCC)C[C@@H]2N1C(=O)NCc1ccccc1 [compound 14] is below 20 µM in terms of IC50.
RESULT: TRUE

QUERY: Please determine if C=CCN1CC(=O)N2[C@@H](Cc3ccc(O)cc3)C(=O)N(Cc3cccc(NC(=O)OC)c3)C[C@@H]2N1C(=O)NCc1ccccc1 [compound 33] is below 20 µM in terms of IC50.
RESULT: FALSE

QUERY: Please determine if C=CCN1CC(=O)N2[C@@H](Cc3ccc(O)cc3)C(=O)N(Cc3cccc(C(=O)O)n3)C[C@@H]2N1C(=O)NCc1ccccc1 [compound 56] is below 20 µM in terms of IC50.
RESULT: FALSE

QUERY: Please determine if C=CCN1CC(=O)N2[C@@H](Cc3ccc(O)cc3)C(=O)N(Cc3cccc(NC(N)=O)c3)C[C@@H]2N1C(=O)NCc1ccccc1 [compound 37] is below 20 µM in terms of IC50.
RESULT: FALSE

QUERY: Please determine if C=CCN1CC(=O)N2[C@@H](Cc3ccc(O)cc3)C(=O)N(Cc3cccc(C(=O)NCC4CCCO4)c3)C[C@@H]2N1C(=O)NCc1ccccc1 (stereo partly shown) [compound 17] is below 20 µM in terms of IC50.
RESULT: TRUE

QUERY: Please determine if C=CCN1CC(=O)N2[C@@H](Cc3ccc(O)cc3)C(=O)N(Cc3ccc(CP(=O)(O)O)cc3)C[C@@H]2N1C(=O)NCc1ccccc1 [compound 57] is below 20 µM in terms of IC50.
RESULT: FALSE

QUERY: Please determine if C=CCN1CC(=O)N2[C@@H](Cc3ccc(O)cc3)C(=O)N(Cc3cccc4c(C(C)=O)c[nH]c34)C[C@@H]2N1C(=O)NCc1ccccc1 [compound 60] is below 20 µM in terms of IC50.
RESULT: TRUE

QUERY: Please determine if C=CCN1CC(=O)N2[C@@H](Cc3ccc(O)cc3)C(=O)N(Cc3cccc(C(=O)NCCO)c3)C[C@@H]2N1C(=O)NCc1ccccc1 [compound 42] is below 20 µM in terms of IC50.
RESULT: FALSE
